# credit: ChEMBL document CHEMBL1201862

tested on: LOX IMVI; assay: NCI tumour cell line growth inhibition, 48 h
The source made the active and inactive calls. No stated cut-off is given here; in the data, active = GI50 up to about 1.1 µM and inactive = higher.
Field: GI50. Provide a value for each of the compounds that follow.

Query Cc1ccc(/N=N/C(=O)NNc2ccc(C)cc2Br)c(Br)c1 yields GI50 of 18 µM (inactive)

Could you tell me GI50 for each of these compounds? They are listed below.
1. O=S(=O)(c1ccc2ccccc2c1)N1CCN(S(=O)(=O)c2ccc3ccccc3c2)CC1
2. c1ccc2c(c1)cc(C1NCCc3nc[nH]c31)c1ccccc12 (stereo not drawn)

Output line:
1. > 100 µM (inactive)
2. 19.8 µM (inactive)

====

system: SF-268; experiment: NCI tumour cell line growth inhibition, 48 h
Calls of active or inactive are those of the source. No stated cut-off is given here; in the data, active = GI50 up to about 1.1 µM and inactive = higher.
readout: GI50

Example entries and their recorded answers appear below.
// assay SF-268, entry COc1ccc(C2(CC(C)C)CCN(S(=O)(=O)c3ccc(C)cc3)C2)cc1OC (stereo unspecified) , GI50 value = 21.9 µM (inactive)

// assay SF-268, entry C(#CC1(Nc2ccccc2)CCN(Cc2ccccc2)CC1)C1(Nc2ccccc2)CCN(Cc2ccccc2)CC1 , GI50 value = 29.1 µM (inactive)

// assay SF-268, entry Cc1nc2ccc(Cl)cc2c2c1CCN2c1ccc(F)cc1 , GI50 value = 58.3 µM (inactive)

// assay SF-268, entry CCCCCCCCCCNC1CC(OC2CC(O)(C(O)CO)Cc3c(O)c4c(c(O)c32)C(=O)c2c(OC)cccc2C4=O)OC(C)C1O (stereo unspecified) , GI50 value = 1.92 µM (inactive)

// assay SF-268, entry C/C=N\n1c(C)c(C#N)c(C#N)c1N , GI50 value = > 100 µM (inactive)

Others:
// assay SF-268, entry C1CNCCN2CCCNCCN(C1)CC2 , GI50 value = > 100 µM (inactive)

====

tested on: COLO 205; assay: NCI tumour cell line growth inhibition, 48 h
The source made the active and inactive calls. No stated cut-off is given here; in the data, active = GI50 up to about 1.1 µM and inactive = higher.
readout: GI50

Example entries and their recorded answers appear below.
// assay COLO 205, entry c1ccc(C2=NCCN2)c(C2=NCCN2)c1 , GI50 value = > 100 µM (inactive)

// assay COLO 205, entry [N-]=[N+]=NC(c1cn(C2CC(O)C(CO)O2)c(=O)[nH]c1=O)C(Cl)I (centres undefined) , GI50 value = > 100 µM (inactive)

// assay COLO 205, entry Oc1cc(N2CCCC2)ccc1/C=N/N1C(=S)N(c2ccccc2)C(=N\c2ccccc2)/C1=N/c1ccccc1 , GI50 value = > 100 µM (inactive)

// assay COLO 205, entry O=C1/C(=C/c2cccc(Cl)c2)CCCc2ccccc21 , GI50 value = 20.5 µM (inactive)

// assay COLO 205, entry CCCCCCCCCCCCCCCC(=O)OCC1OC(n2ccc(N)nc2=O)C(O)C1O (centres undefined) , GI50 value = 15 µM (inactive)

Could you tell me GI50 for each of these compounds? They are listed below.
1. COc1ccccc1NC(=O)C1=C(C)NC(C)=C(C(=O)Nc2ccccc2OC)C1c1ccc(C2C(C(=O)Nc3ccccc3OC)=C(C)NC(C)=C2C(=O)Nc2ccccc2OC)cc1
2. O=C(O)C(CS)NCc1c2ccccc2[n+]([O-])c2ccccc12 (centres undefined)
3. N[C@H](C(=O)O)[C@H](Cl)CC(=O)O
4. O=c1cc(-c2ccccc2)oc2ccc(-c3ccc4oc(-c5ccccc5)cc(=O)c4c3)cc12
5. CC[C@]1(Cc2ccc(OC)c(OC)c2)C2CC(C(=O)OC)ON2O[C@H](OCc2ccccc2)[C@@H]1OC(C)=O (some centres undefined)
6. C#CCOCn1cnc2ncnc(N)c21

Output line:
3.33 µM (inactive)
78.3 µM (inactive)
> 100 µM (inactive)
17.1 µM (inactive)
> 100 µM (inactive)
> 100 µM (inactive)

Could you tell me GI50 for each of these compounds? They are listed below.
1. CC(C)(CN1CCCCC1)C(=O)/C=C/c1ccccc1
2. Cc1sc2nc3n(c(=O)c2c1C)N=C(c1ccccc1)CS3

Output line:
["16.4 µM (inactive)", "> 100 µM (inactive)"]

Could you tell me GI50 for each of these compounds? They are listed below.
1. O=C1NC(O)c2cc3ccccc3cc2O1 (centres undefined)
2. O=S(=O)(c1ccc2ccccc2c1)N1CCN(S(=O)(=O)c2ccc3ccccc3c2)CC1
3. COc1ccc(C(=O)O[C@H]2CC[C@@]3(C)[C@@H]4CC[C@H]5[C@]6(O)C[C@H](O)[C@@]7(O)[C@@H](CN8C[C@@H](C)CC[C@H]8[C@@]7(C)O)[C@]6(O)C[C@@]53OC24O)cc1OC
4. Cc1cc(N(CC(C)Br)CC(C)Br)ccc1/N=N/c1ccccc1C(=O)O (centres undefined)
5. CCn1c2ccccc2c2nnc(NCCCO)nc21
6. COc1ccc(C(=O)/C=C/c2cc(O)c(O)c(F)c2F)c(OC)c1

Output line:
["> 100 µM (inactive)", "> 100 µM (inactive)", "> 100 µM (inactive)", "5.47 µM (inactive)", "> 100 µM (inactive)", "15.6 µM (inactive)"]
